Catalogue of compounds with associated Kd
Target: PDGFRβ (Homo sapiens, UniProt P09619)
Construct: made in house
Sequence (P09619 33-1106): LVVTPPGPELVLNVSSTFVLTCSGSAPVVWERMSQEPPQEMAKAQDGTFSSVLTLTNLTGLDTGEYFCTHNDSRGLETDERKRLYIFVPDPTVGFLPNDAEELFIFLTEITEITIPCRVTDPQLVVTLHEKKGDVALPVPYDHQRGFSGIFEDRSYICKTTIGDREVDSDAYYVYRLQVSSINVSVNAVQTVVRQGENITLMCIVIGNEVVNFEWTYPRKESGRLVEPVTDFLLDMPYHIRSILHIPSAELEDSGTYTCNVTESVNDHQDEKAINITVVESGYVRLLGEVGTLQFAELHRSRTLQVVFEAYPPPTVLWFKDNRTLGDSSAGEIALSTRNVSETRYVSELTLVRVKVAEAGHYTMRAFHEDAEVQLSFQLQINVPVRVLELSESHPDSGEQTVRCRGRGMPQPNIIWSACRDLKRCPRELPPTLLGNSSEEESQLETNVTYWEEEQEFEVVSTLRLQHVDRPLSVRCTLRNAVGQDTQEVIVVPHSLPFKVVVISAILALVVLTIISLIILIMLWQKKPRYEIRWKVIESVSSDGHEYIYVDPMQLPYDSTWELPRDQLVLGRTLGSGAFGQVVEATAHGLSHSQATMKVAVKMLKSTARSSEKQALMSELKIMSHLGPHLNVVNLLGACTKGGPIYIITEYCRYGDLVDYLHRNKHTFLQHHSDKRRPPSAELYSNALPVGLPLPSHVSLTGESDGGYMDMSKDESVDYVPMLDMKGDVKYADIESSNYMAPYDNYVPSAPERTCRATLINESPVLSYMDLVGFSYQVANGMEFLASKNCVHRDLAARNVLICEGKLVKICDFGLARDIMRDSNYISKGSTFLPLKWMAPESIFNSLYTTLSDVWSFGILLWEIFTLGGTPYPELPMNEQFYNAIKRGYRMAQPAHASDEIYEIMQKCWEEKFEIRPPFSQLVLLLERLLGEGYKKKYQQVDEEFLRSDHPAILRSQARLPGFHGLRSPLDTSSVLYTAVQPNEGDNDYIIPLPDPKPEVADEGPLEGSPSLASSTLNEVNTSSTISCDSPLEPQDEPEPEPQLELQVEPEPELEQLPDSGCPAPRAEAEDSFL
Experiment: Competition binding assay, PDGFRβ Kd
Conditions: competition binding

[
  {
    "test smiles": "O[C@@H]1CCCC[C@H]1Nc1nc2ccc(Cn3cnc4cc(-n5ccnc5)ccc43)cc2s1",
    "experimental target": "PDGFRβ (Homo sapiens, UniProt P09619)",
    "Kd": "≤ 50 nM"
  },
  {
    "test smiles": "C=Cc1ccc2c(c1)ncn2Cc1ccc2nc(N[C@@H]3CCC[C@@H](O)[C@H]3O)sc2c1",
    "experimental target": "PDGFRβ (Homo sapiens, UniProt P09619)",
    "Kd": "≤ 50 nM"
  },
  {
    "test smiles": "O[C@H]1[C@@H](O)CCC[C@H]1Nc1nc2ccc(Cn3cnc4cc(F)cnc43)cc2s1",
    "experimental target": "PDGFRβ (Homo sapiens, UniProt P09619)",
    "Kd": "50 to 500 nM"
  },
  {
    "test smiles": "O[C@@H]1CCCC[C@H]1Nc1nc2ccc(Cn3cnc4cc(F)c(F)cc43)cc2s1",
    "experimental target": "PDGFRβ (Homo sapiens, UniProt P09619)",
    "Kd": "50 to 500 nM"
  }
]

###

Target: FLT3 (Homo sapiens)
Construct: made in house
Sequence (P36888 27-993): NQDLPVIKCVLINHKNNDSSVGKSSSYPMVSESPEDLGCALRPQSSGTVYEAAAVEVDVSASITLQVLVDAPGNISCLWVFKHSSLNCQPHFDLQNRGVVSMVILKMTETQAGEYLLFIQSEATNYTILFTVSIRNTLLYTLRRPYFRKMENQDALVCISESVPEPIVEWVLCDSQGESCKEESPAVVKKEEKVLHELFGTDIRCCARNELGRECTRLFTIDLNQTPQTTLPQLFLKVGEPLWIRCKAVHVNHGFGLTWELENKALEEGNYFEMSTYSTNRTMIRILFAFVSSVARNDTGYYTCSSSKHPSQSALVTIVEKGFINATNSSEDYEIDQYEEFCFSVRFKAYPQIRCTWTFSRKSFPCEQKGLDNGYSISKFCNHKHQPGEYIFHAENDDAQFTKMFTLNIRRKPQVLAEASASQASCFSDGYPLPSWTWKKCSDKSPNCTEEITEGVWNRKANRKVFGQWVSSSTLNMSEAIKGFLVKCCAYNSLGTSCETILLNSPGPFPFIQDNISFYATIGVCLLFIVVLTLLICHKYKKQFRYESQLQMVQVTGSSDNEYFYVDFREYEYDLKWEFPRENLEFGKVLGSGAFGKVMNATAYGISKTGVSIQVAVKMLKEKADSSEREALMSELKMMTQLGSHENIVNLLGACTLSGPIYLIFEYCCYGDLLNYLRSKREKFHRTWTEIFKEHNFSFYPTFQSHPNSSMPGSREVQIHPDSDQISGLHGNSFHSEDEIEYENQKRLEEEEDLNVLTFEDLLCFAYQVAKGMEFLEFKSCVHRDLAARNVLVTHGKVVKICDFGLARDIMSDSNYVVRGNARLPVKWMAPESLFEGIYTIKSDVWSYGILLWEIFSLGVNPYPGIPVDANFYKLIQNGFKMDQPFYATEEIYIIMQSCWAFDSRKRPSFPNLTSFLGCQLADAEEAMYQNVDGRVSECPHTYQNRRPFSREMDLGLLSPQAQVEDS
Experiment: Competition binding assay, FLT3 Kd
Settings: competition binding
Known Kd of a selection of molecules
endpoint: Kd

[
  {
    "test smiles": "O[C@@H]1CCCC[C@H]1Nc1nc2ccc(Cn3cnc4cc(C(F)(F)F)cnc43)cc2s1",
    "experimental target": "FLT3 (Homo sapiens)",
    "result value": "200 to 1000 nM"
  },
  {
    "test smiles": "Cc1cc2ncn(Cc3ccc4nc(N[C@@H]5CCCC[C@H]5O)sc4c3)c2cc1C",
    "experimental target": "FLT3 (Homo sapiens)",
    "result value": "200 to 1000 nM"
  },
  {
    "test smiles": "O[C@@H]1CCCC[C@H]1Nc1nc2c(Cl)cc(Cc3cnc4ccc(N5CCOCC5)nn34)cc2s1",
    "experimental target": "FLT3 (Homo sapiens)",
    "result value": "1000 to 5000 nM"
  },
  {
    "test smiles": "O[C@@H]1CCCC[C@H]1Nc1nc2ccc(Cn3cnc4cc(OCCN5CCOCC5)ccc43)cc2s1",
    "experimental target": "FLT3 (Homo sapiens)",
    "result value": "200 to 1000 nM"
  },
  {
    "test smiles": "N#Cc1cnc2c(c1)ncn2Cc1ccc2nc(N[C@@H]3CCCC[C@H]3O)oc2c1",
    "experimental target": "FLT3 (Homo sapiens)",
    "result value": "200 to 1000 nM"
  },
  {
    "test smiles": "O[C@@H]1CCCC[C@H]1Nc1nc2ccc(Cc3cnc4cc(-n5ccnn5)ccn34)cc2s1",
    "experimental target": "FLT3 (Homo sapiens)",
    "result value": "1000 to 5000 nM"
  },
  {
    "test smiles": "O[C@@H]1CCCC[C@H]1Nc1nc2ccc(Cc3cnc4cc(-n5cccn5)ccn34)cc2s1",
    "experimental target": "FLT3 (Homo sapiens)",
    "result value": "1000 to 5000 nM"
  },
  {
    "test smiles": "O[C@@H]1CCCC[C@H]1Nc1nc2ccc(Cc3cnc4cc(-n5cncn5)ccn34)cc2s1",
    "experimental target": "FLT3 (Homo sapiens)",
    "result value": "1000 to 5000 nM"
  },
  {
    "test smiles": "OC[C@@H]1CCCC[C@H]1Nc1nc2ccc(Cn3cnc4cc(Br)cnc43)cc2s1",
    "experimental target": "FLT3 (Homo sapiens)",
    "result value": "1000 to 5000 nM"
  },
  {
    "test smiles": "COc1ccc2ncc(Cc3ccc4nc(N[C@@H]5CCCC[C@H]5O)sc4c3)n2n1",
    "experimental target": "FLT3 (Homo sapiens)",
    "result value": "200 to 1000 nM"
  },
  {
    "test smiles": "Cc1ccc2c(c1)ncn2Cc1ccc2nc(N[C@@H]3CCCC[C@H]3O)sc2c1",
    "experimental target": "FLT3 (Homo sapiens)",
    "result value": "1000 to 5000 nM"
  },
  {
    "test smiles": "Cn1nnnc1-c1cnc2c(c1)ncn2Cc1ccc2nc(N[C@@H]3CCCC[C@H]3O)sc2c1",
    "experimental target": "FLT3 (Homo sapiens)",
    "result value": "200 to 1000 nM"
  },
  {
    "test smiles": "O[C@@H]1[C@H](O)CCC[C@H]1Nc1nc2ccc(Cn3cnc4cc(-n5cncn5)cnc43)cc2s1",
    "experimental target": "FLT3 (Homo sapiens)",
    "result value": "200 to 1000 nM"
  },
  {
    "test smiles": "O[C@@H]1CCCC[C@H]1Nc1nc2ccc(Cc3cnc4cc(-n5ccnc5)ccn34)cc2s1",
    "experimental target": "FLT3 (Homo sapiens)",
    "result value": "> 5000 nM"
  },
  {
    "test smiles": "O[C@@H]1CCCC[C@H]1Nc1nc2ccc(Cn3cnc4cc(C(F)(F)F)ccc43)cc2s1",
    "experimental target": "FLT3 (Homo sapiens)",
    "result value": "1000 to 5000 nM"
  },
  {
    "test smiles": "Cc1cc(C)c2c(c1)ncn2Cc1ccc2nc(N[C@@H]3CCCC[C@H]3O)sc2c1",
    "experimental target": "FLT3 (Homo sapiens)",
    "result value": "200 to 1000 nM"
  },
  {
    "test smiles": "O[C@@H]1CCCC[C@H]1Nc1nc2ccc(Cn3cnc4cc(N5CCOCC5)ccc43)cc2s1",
    "experimental target": "FLT3 (Homo sapiens)",
    "result value": "200 to 1000 nM"
  },
  {
    "test smiles": "O[C@@H]1CCCC[C@H]1Nc1nc2ccc(Cn3cnc4cnc(C(F)(F)F)nc43)cc2s1",
    "experimental target": "FLT3 (Homo sapiens)",
    "result value": "200 to 1000 nM"
  },
  {
    "test smiles": "O[C@@H]1CCCC[C@H]1Nc1nc2ccc(Cn3cnc4cc(I)cnc43)cc2s1",
    "experimental target": "FLT3 (Homo sapiens)",
    "result value": "200 to 1000 nM"
  },
  {
    "test smiles": "CN1CCN(c2ccn3c(Cc4ccc5nc(N[C@@H]6CCCC[C@H]6O)sc5c4)cnc3c2)CC1",
    "experimental target": "FLT3 (Homo sapiens)",
    "result value": "1000 to 5000 nM"
  },
  {
    "test smiles": "O=c1c(N2CCOCC2)nccn1Cc1ccc2nc(N[C@@H]3CCCC[C@H]3O)sc2c1",
    "experimental target": "FLT3 (Homo sapiens)",
    "result value": "> 5000 nM"
  },
  {
    "test smiles": "N#Cc1ccc2ncn(Cc3ccc4nc(N[C@@H]5CCCC[C@H]5O)sc4c3)c2c1",
    "experimental target": "FLT3 (Homo sapiens)",
    "result value": "1000 to 5000 nM"
  },
  {
    "test smiles": "N#Cc1cnc2c(c1)ncn2Cc1ccc2nc(N[C@@H]3CCCC[C@H]3CO)sc2c1",
    "experimental target": "FLT3 (Homo sapiens)",
    "result value": "> 5000 nM"
  },
  {
    "test smiles": "OCCOc1ccn2c(Cc3ccc4nc(N[C@@H]5CCCC[C@H]5O)sc4c3)cnc2c1",
    "experimental target": "FLT3 (Homo sapiens)",
    "result value": "> 5000 nM"
  },
  {
    "test smiles": "C=CCOc1ccn2c(Cc3ccc4nc(N[C@@H]5CCCC[C@H]5O)sc4c3)cnc2c1",
    "experimental target": "FLT3 (Homo sapiens)",
    "result value": "1000 to 5000 nM"
  },
  {
    "test smiles": "N#Cc1ccc2ncc(Cc3ccc4nc(N[C@@H]5CCCC[C@H]5O)sc4c3)n2n1",
    "experimental target": "FLT3 (Homo sapiens)",
    "result value": "≤ 200 nM"
  },
  {
    "test smiles": "O[C@@H]1CCCC[C@H]1Nc1nc2ncc(Cn3cnc4cccnc43)cc2s1",
    "experimental target": "FLT3 (Homo sapiens)",
    "result value": "1000 to 5000 nM"
  },
  {
    "test smiles": "CNC(=O)c1ccc2c(c1)ncn2Cc1ccc2nc(N[C@@H]3CCCC[C@H]3O)sc2c1",
    "experimental target": "FLT3 (Homo sapiens)",
    "result value": "200 to 1000 nM"
  },
  {
    "test smiles": "O[C@@H]1CCCC[C@H]1Nc1nc2ccc(Cc3cnc4ccc(Br)nn34)cc2s1",
    "experimental target": "FLT3 (Homo sapiens)",
    "result value": "≤ 200 nM"
  },
  {
    "test smiles": "Fc1cnc2c(c1)ncn2Cc1ccc2nc(Nc3ccccc3)sc2c1",
    "experimental target": "FLT3 (Homo sapiens)",
    "result value": "1000 to 5000 nM"
  },
  {
    "test smiles": "O[C@@H]1CCCC[C@H]1Nc1nc2ccc(Cn3cnc4cc(OC5COC5)ccc43)cc2s1",
    "experimental target": "FLT3 (Homo sapiens)",
    "result value": "200 to 1000 nM"
  },
  {
    "test smiles": "O[C@@H]1CCCC[C@H]1Nc1nc2ccc(Cn3cnc4cc(-n5cncn5)cnc43)cc2s1",
    "experimental target": "FLT3 (Homo sapiens)",
    "result value": "1000 to 5000 nM"
  }
]
